The measurements presented in this section are drawn from patent US6989155B1.

test.protocol: Bulk density (poured density) of powder in a 100 cm^3 measuring cylinder
Format: physicochemical
particulars: L-leucine samples, Example 1, Table 1
Method: The bulk density (or poured density) of a material of the present invention is determined by the following method: 2 g of the material is poured from weighing paper into a 100 cm^3 graduated glass measuring cylinder in an upright position. […] The volume occupied by the poured powder in the cylinder is measured to the nearest 0.5 ml (bulk volume) and the weight of the powder is determined. The bulk density of the material is calculated as the weight of the powder divided by the bulk volume. […]
readout: Bulk Density (g cm^−3)

Solved entries:
INSERT INTO assay_data (compound, readout, unit_tag, measured) VALUES
  ('CC(C)C[C@H](N)C(=O)O [spray-dried E, L-leucine]', 'Bulk Density', 'g cm^−3', 0.032),
  ('CC(C)C[C@H](N)C(=O)O [spray-dried A, L-leucine]', 'Bulk Density', 'g cm^−3', 0.042);

P = CC(C)C[C@H](N)C(=O)O [unprocessed, L-leucine, reference compound]
Q = CC(C)C[C@H](N)C(=O)O [spray-dried D, L-leucine]
### Prompt Hi there, can you help? I need to know whether P or Q has lower measured Bulk Density. Pick one and reply with its label.
### Response Q
(Q: 0.035 g cm^−3, P: 0.710 g cm^−3)
